// reported viability, T/C per item
- System: NCI-H196 complex spheroid viability
- PROTOCOL_NOTES: Anticancer human tumor NCI-H196 cell line growth inhibition [LSD1]
- CONDITION_NOTES: second compound 3.16 µM; first compound 0.000316 µM; active compounds read low
- Excerpt: Multicellular complex tumor spheroid response to LSD1 Inhibitor Iadademstat in combination with a variety of drugs and investigational agents in selected tumor cell lines The current study was undertaken to assess response to LSD1 inhibitors in combination with standard-of-care drugs and investigational agents in solid tumor complex spheroid models as well as in the K-562 leukemia. […] Compounds. […] If the clinical Cmax for an agent had not been determined, the highest concentration tested was 10 microM. […]
The reply should contain only the number, in %.

Worked set:
INSERT INTO measurements (compound, readout_name, unit_of_measurement, measured) VALUES
  ('CC[C@@]1(O)C(=O)OCc2c1cc1n(c2=O)Cc2cc3c(CN(C)C)c(O)ccc3nc2-1 + NC1CCC(NC2CC2c2ccccc2)CC1', 'viability, T/C', '%', 88.7),
  ('CC[C@@]1(O)C(=O)OCc2c1cc1n(c2=O)Cc2cc3c(CN(C)C)c(O)ccc3nc2-1 + NC1CC1c1ccc(-c2cccc(O)c2)cc1', 'viability, T/C', '%', 90.7),
  ('Cn1ncnc1C1c2n[nH]c(=O)c3cc(F)cc(c23)NC1c1ccc(F)cc1 (stereo not drawn) + NC1CCC(NC2CC2c2ccccc2)CC1', 'viability, T/C', '%', 90.7);

Would you kindly share the measured viability, T/C for Cn1ncnc1C1c2n[nH]c(=O)c3cc(F)cc(c23)NC1c1ccc(F)cc1 (stereo not drawn) + NC1CC1c1ccc(-c2cccc(O)c2)cc1 ? 92.2

Please report the recorded viability, T/C for CC(C)CC(NC(=O)C(Cc1ccccc1)NC(=O)c1cnccn1)B(O)O (stereo not drawn) + NC1CCC(NC2CC2c2ccccc2)CC1 . 80.8

So what does the record say about viability, T/C for CC(C)CC(NC(=O)CNC(=O)c1cc(Cl)ccc1Cl)B1OC(=O)CC(CC(=O)O)(C(=O)O)O1 (stereo not drawn) + NC1CCC(NC2CC2c2ccccc2)CC1 ? 99.5

Find the recorded viability, T/C belonging to CC(C)CC(NC(=O)C(Cc1ccccc1)NC(=O)c1cnccn1)B(O)O (stereo not drawn) + NC1CC1c1ccc(-c2cccc(O)c2)cc1 and report it. 58.1

Would you kindly share the measured viability, T/C for CC(C)CC(NC(=O)CNC(=O)c1cc(Cl)ccc1Cl)B1OC(=O)CC(CC(=O)O)(C(=O)O)O1 (stereo not drawn) + NC1CC1c1ccc(-c2cccc(O)c2)cc1 ? 91

----------
- Test system: NCI-H196 complex spheroid viability
- PROTOCOL_NOTES: Anticancer human tumor NCI-H196 cell line growth inhibition [LSD1];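 note: spheroids exposed to agents for 7 days before readout; 100% = DMSO vehicle control viability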
- CONDITION_NOTES: second compound 0.1 µM; first compound 0.00949 µM; active compounds read low
Below, each entry is listed with its recorded viability, T/C.
Supply the numeric figure in %, leaving out any unit text.

INSERT INTO measurements (compound, subject_of_test, measured) VALUES
  ('COc1cc(C2c3cc4c(cc3C(OC3OC5COC(C)OC5C(O)C3O)C3COC(=O)C23)OCO4)cc(OC)c1O (stereo unspecified) + NC1CC1c1ccc(-c2cccc(O)c2)cc1', 'NCI-H196 complex spheroid viability', 95.2),
  ('O=C(C=Cc1cccc(S(=O)(=O)Nc2ccccc2)c1)NO + NC1CCC(NC2CC2c2ccccc2)CC1', 'NCI-H196 complex spheroid viability', 99.6),
  ('CCN(c1cc(-c2ccc(CN3CCOCC3)cc2)cc(C(=O)NCc2c(C)cc(C)[nH]c2=O)c1C)C1CCOCC1 + NC1CC1c1ccc(-c2cccc(O)c2)cc1', 'NCI-H196 complex spheroid viability', 93.6),
  ('CCN(c1cc(-c2ccc(CN3CCOCC3)cc2)cc(C(=O)NCc2c(C)cc(C)[nH]c2=O)c1C)C1CCOCC1 + NC1CCC(NC2CC2c2ccccc2)CC1', 'NCI-H196 complex spheroid viability', 100),
  ('Nc1ccn(C2OC(CO)C(O)C2(F)F)c(=O)n1 (stereo unspecified) + NC1CC1c1ccc(-c2cccc(O)c2)cc1', 'NCI-H196 complex spheroid viability', 97.4),
  ('Nc1ccn(C2OC(CO)C(O)C2(F)F)c(=O)n1 (stereo unspecified) + NC1CCC(NC2CC2c2ccccc2)CC1', 'NCI-H196 complex spheroid viability', 85.9);

--- query ---
So what does the record say about viability, T/C for CCc1c2c(nc3ccc(O)cc13)-c1cc3c(c(=O)n1C2)COC(=O)[C@]3(O)CC + NC1CCC(NC2CC2c2ccccc2)CC1 ? 52.8

----------
- System: NCI-H196 complex spheroid viability
- PROTOCOL_NOTES: Anticancer human tumor NCI-H196 cell line growth inhibition [LSD1]; active = viability on the fitted dose curve at most 10% of control; inactive = the rest;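 note: spheroids exposed to agents for 7 days before readout; 100% = DMSO vehicle control viability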
- CONDITION_NOTES: second compound 1 µM; first compound 0.00316 µM
A correct response names exactly one class from T = active, F = inactive

INSERT INTO results (compound, subject_of_test, label) VALUES
  ('CC[C@@]1(O)C(=O)OCc2c1cc1n(c2=O)Cc2cc3c(CN(C)C)c(O)ccc3nc2-1 + NC1CC1c1ccc(-c2cccc(O)c2)cc1', 'NCI-H196 complex spheroid viability', 'F'),
  ('Nc1ncn(C2CC(O)C(CO)O2)c(=O)n1 (centres undefined) + NC1CC1c1ccc(-c2cccc(O)c2)cc1', 'NCI-H196 complex spheroid viability', 'F'),
  ('Nc1ncn(C2CC(O)C(CO)O2)c(=O)n1 (centres undefined) + NC1CCC(NC2CC2c2ccccc2)CC1', 'NCI-H196 complex spheroid viability', 'F'),
  ('CC(C)CC(NC(=O)C(Cc1ccccc1)NC(=O)c1cnccn1)B(O)O (centres undefined) + NC1CC1c1ccc(-c2cccc(O)c2)cc1', 'NCI-H196 complex spheroid viability', 'T'),
  ('Cn1ncnc1C1c2n[nH]c(=O)c3cc(F)cc(c23)NC1c1ccc(F)cc1 (centres undefined) + NC1CC1c1ccc(-c2cccc(O)c2)cc1', 'NCI-H196 complex spheroid viability', 'F');

Would you mind telling me which call this test gave CC(C)CC(NC(=O)C(Cc1ccccc1)NC(=O)c1cnccn1)B(O)O (centres undefined) + NC1CCC(NC2CC2c2ccccc2)CC1 ? T

Answer briefly: the call reported for CC(C)CC(NC(=O)CNC(=O)c1cc(Cl)ccc1Cl)B1OC(=O)CC(CC(=O)O)(C(=O)O)O1 (centres undefined) + NC1CCC(NC2CC2c2ccccc2)CC1 in this assay. F

Hi, sorry to bother you, what did the test record for CC1COCCN1c1cc(-c2ccnn2C)c2ccnc(-c3ccn[nH]3)c2n1 (centres undefined) + NC1CC1c1ccc(-c2cccc(O)c2)cc1 ? F

Check the results log: what was the call for O=C(C=Cn1cnc(-c2cc(C(F)(F)F)cc(C(F)(F)F)c2)n1)NNc1cnccn1 + NC1CC1c1ccc(-c2cccc(O)c2)cc1 ? F

----------
- Tested on: NCI-H196 complex spheroid viability
- PROTOCOL_NOTES: Anticancer human tumor NCI-H196 cell line growth inhibition [LSD1];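 note: spheroids exposed to agents for 7 days before readout; 100% = DMSO vehicle control viability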
- CONDITION_NOTES: second compound 10 µM; first compound 0.000949 µM; active compounds read low
READOUT_NAME: viability, T/C

INSERT INTO assay_data (compound, measured) VALUES
  ('CCc1c2c(nc3ccc(O)cc13)-c1cc3c(c(=O)n1C2)COC(=O)[C@]3(O)CC + NC1CCC(NC2CC2c2ccccc2)CC1', '113%'),
  ('Nc1ncn(C2CC(O)C(CO)S2)c(=O)n1 (stereo unspecified) + NC1CCC(NC2CC2c2ccccc2)CC1', '108%'),
  ('Nc1ccn(C2OC(CO)C(O)C2(F)F)c(=O)n1 (stereo unspecified) + NC1CCC(NC2CC2c2ccccc2)CC1', '94.2%'),
  ('Nc1ncn(C2CC(O)C(CO)S2)c(=O)n1 (stereo unspecified) + NC1CC1c1ccc(-c2cccc(O)c2)cc1', '101%'),
  ('Nc1ccn(C2OC(CO)C(O)C2(F)F)c(=O)n1 (stereo unspecified) + NC1CC1c1ccc(-c2cccc(O)c2)cc1', '111%');

Find the recorded viability, T/C belonging to CCc1c2c(nc3ccc(O)cc13)-c1cc3c(c(=O)n1C2)COC(=O)[C@]3(O)CC + NC1CC1c1ccc(-c2cccc(O)c2)cc1 and report it. 90.9%

----------
Recorded viability, T/C by entry
- Test system: NCI-H196 complex spheroid viability
- PROTOCOL_NOTES: Anticancer human tumor NCI-H196 cell line growth inhibition [LSD1];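 note: spheroids exposed to agents for 7 days before readout; 100% = DMSO vehicle control viability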
- CONDITION_NOTES: second compound 0.316 µM; first compound 0.000949 µM; active compounds read low
Reply with just the number (in %).

INSERT INTO measurements (compound, readout_name, measured) VALUES
  ('Nc1ccn(C2OC(CO)C(O)C2(F)F)c(=O)n1 (stereo unspecified) + NC1CCC(NC2CC2c2ccccc2)CC1', 'viability, T/C', 96.8);

--- query ---
Entry Nc1ncn(C2CC(O)C(CO)S2)c(=O)n1 (stereo unspecified) + NC1CC1c1ccc(-c2cccc(O)c2)cc1 , system NCI-H196 complex spheroid viability: what viability, T/C was measured? 107
